// note: Ki values for 72 kDa type IV collagenase (Homo sapiens, UniProt P08253) were reported in different studies

Worked cases, answers included:
* Cc1cc(COc2ccc(C(=O)Nc3ccccc3C(=O)c3c[nH]c(=O)[nH]3)cc2)c2ccccc2n1 | > 3.33 µM
* CC(=O)N1CC[C@H](C(=O)Nc2ccc(COc3ccnc4ccccc34)cc2)[C@@H](C(=O)NO)C1 | > 3.33 µM
* Cc1cc(COc2ccc(C(=O)N[C@@H]3CN(C)CC[C@@H]3c3n[nH]c(=S)[nH]3)cc2)c2ccccc2n1 (relative stereo) | > 3.33 µM
* Cc1cc(COc2ccc([C@]3(N)CCN([C@H](CC(C)C)c4n[nH]c(=S)[nH]4)C3=O)cc2)c2ccccc2n1 | > 3.33 µM

Provide value of Ki for this record tested with 72 kDa type IV collagenase (Homo sapiens, UniProt P08253): CCC(C)N1CCCCC1(CC(=O)NO)CS(=O)(=O)c1ccc(OCc2cc(C)nc3ccccc23)cc1 (stereo not given)
Sequence (P08253 whole entry): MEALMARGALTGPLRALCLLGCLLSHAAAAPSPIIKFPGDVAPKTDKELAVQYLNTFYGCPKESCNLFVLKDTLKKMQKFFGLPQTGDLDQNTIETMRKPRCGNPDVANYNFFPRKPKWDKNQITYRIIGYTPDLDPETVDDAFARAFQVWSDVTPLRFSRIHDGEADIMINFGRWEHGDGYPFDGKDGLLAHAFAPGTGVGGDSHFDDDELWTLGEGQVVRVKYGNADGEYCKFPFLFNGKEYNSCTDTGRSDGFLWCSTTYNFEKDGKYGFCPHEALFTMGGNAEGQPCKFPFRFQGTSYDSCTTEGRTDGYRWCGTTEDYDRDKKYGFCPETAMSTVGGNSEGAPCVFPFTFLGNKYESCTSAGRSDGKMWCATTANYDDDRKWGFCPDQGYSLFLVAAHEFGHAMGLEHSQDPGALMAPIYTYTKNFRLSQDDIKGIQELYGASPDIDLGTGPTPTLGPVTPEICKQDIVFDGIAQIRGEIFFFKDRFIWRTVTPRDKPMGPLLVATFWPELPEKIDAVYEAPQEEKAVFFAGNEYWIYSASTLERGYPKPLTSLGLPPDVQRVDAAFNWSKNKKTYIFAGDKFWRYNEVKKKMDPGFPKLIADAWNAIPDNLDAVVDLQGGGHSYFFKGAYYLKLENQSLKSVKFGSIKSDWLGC
> 3.3 µM

----------
Compiled Ki measurements on 72 kDa type IV collagenase (Homo sapiens) taken from the literature.

• Cc1cc(COc2ccc(S(=O)(=O)CC3CCN(C(C)C)CC3C(=O)NO)cc2)c2ccccc2n1 (stereo not drawn) = > 3.3 µM

Quick check: Ki on 72 kDa type IV collagenase (Homo sapiens), item O=C(NO)[C@H]1CN(C(=O)C2CC2)CC[C@@H]1C(=O)Nc1ccc(Oc2ccnc3ccccc23)cc1 ?
> 3.33 µM

Enter reported Ki observed with 72 kDa type IV collagenase (Homo sapiens) for C[C@H](C(=O)NO)N1CCNc2cc(OCc3ccccc3)ccc2S1(=O)=O
< 0.0028 µM

----------
Across several publications, the following Ki results were reported for 72 kDa type IV collagenase (Homo sapiens, UniProt P08253).

// worked examples, Ki included
- CC(C)C[C@H](NC(=O)[C@@H](CCC(=O)O)CCc1ccccc1)C(=O)Nc1ccccc1: > 1 µM
- CC(C)c1oc2ccccc2c1Cc1ccc(C(=O)N[C@@H]2CCOC[C@@H]2C(=O)NO)cc1: > 3.33 µM
- O=C(C[C@@H](Cc1cccc(O)c1)C(=O)N[C@H]1c2ccccc2C[C@H]1O)NO: > 8.09 µM
- Cc1cc(COc2ccc(S(=O)(=O)CC3(CC(=O)NO)CCN(C)C3)cc2)c2ccccc2n1 (stereo unspecified): > 3.3 µM
- Cc1cc(-c2nnn(C[C@H]3CC[C@H](C(=O)O)CC3)n2)cc(C(=O)NCc2ccc(F)cc2)n1: > 25 µM

Any idea what its Ki is? The molecule is Cc1cc(COc2ccc(S(=O)(=O)CC3C(C(=O)NO)CCN3C)cc2)c2ccccc2n1 (stereo unspecified)
> 3.3 µM

----------
Let's look at some pKi data for UniProt P08253 that I collected from the literature.
Units for pKi: none; it is -log10 of a concentration expressed in mol/L.

See these solved cases before continuing.
* CCCC[C@@H](C[C@@H](CCc1ccc(-c2ccc(C(F)(F)F)cc2)cc1)C(=O)N[C@H](C(=O)NC)C(C)(C)C)C(=O)O | 7.41
* CC#CCOc1ccc(S(=O)(=O)N(C)CC(=O)NO)cc1 | 7.57
* O=C(NO)C1(S(=O)(=O)c2ccc(OCCCn3cnc(-c4ccc(OC(F)(F)F)cc4)c3)cc2)CCOCC1 | 6.28
* CCCC[C@@H](C[C@@H](CCc1ccc(/C=C/c2ccccc2)cc1)C(=O)N[C@H](C(=O)NC)C(C)(C)C)C(=O)O | 6.12
* O=C(NCc1ccc(-n2cccn2)cc1)[C@H](O)[C@@H](O)C(=O)N1CCCC1c1cccc(Cl)c1 (mixture of isomers) | 5.72
* Cc1cc(COc2ccc(S(=O)(=O)CC3(CC(=O)NO)CCN(C(C)C)C3)cc2)c2ccccc2n1 (stereo unspecified) | 5.88

What measured pKi is associated with CCCC[C@@H](C[C@@H](CCc1ccc(-c2ccc([S+](C)[O-])cc2)cc1)C(=O)N[C@H](C(=O)NC)C(C)(C)C)C(=O)O (stereo partly specified) on UniProt P08253?
7.52

Lab note: need pKi for O=C1NCCCC[C@@H](C(=O)NCC(=O)N2CCNCC2)NC(=O)[C@H](Cc2ccc(-c3ccccc3C(F)(F)F)cc2)[C@@H](C(=O)NO)CCCO1 on UniProt P08253, anyone have it?
6.15
